Assay: clinical
Settings: both, human, in vivo, Plasma concentration at time of bronchoscopy and BAL
OBSERVABLE: concentration at 4 h (ng/mL)
Provide only the numeric value, understood in ng/mL.

Form field: reported concentration at 4 h of O=C(O)C[C@@H]1CC[C@H](NC(=O)Cc2cccs2)B(O)O1
28200

* * *

Assay: clinical
Conditions: both, human, in vivo, Plasma concentration at time of bronchoscopy and BAL
OBSERVABLE: concentration at 1.5 h (ng/mL)
Provide only the numeric value, understood in ng/mL.

Form field: reported concentration at 1.5 h of O=C(O)C[C@@H]1CC[C@H](NC(=O)Cc2cccs2)B(O)O1 [Compound I]
42100
